Recorded values, source paper PMC9964746.

tested.target: vasopressin-2 receptor (AVP2R) (Homo sapiens, UniProt P30518)
Construct: expressed in transfected cells; host or cells: CHO-K1 (PAM format); HEK-293 (agonist format)
Sequence (P30518 whole entry): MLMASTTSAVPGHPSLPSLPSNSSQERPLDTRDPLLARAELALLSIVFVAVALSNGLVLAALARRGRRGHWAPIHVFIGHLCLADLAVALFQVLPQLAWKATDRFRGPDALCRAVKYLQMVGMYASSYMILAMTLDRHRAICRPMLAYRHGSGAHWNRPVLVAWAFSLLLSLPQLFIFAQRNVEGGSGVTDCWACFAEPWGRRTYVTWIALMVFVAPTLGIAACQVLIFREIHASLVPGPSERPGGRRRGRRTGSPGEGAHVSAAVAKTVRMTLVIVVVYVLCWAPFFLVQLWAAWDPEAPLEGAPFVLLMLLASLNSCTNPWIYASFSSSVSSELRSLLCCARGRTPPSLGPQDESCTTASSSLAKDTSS
procedure.summary: AVP2R cAMP HTRF accumulation assay
Format: cell-based
experimental.context: CHO-K1 AVP2R cells, PAM format with vasopressin; original hits: agonist and PAM data combined; average ± SD
measurement.name: pEC50
Field pEC50 (float): negative decimal logarithm of the concentration in molar.

Report pEC50 on vasopressin-2 receptor (AVP2R) (Homo sapiens, UniProt P30518) for this entry: CCN(CC)CCNc1ncnc2c1sc1nc(N3CCCCC3)c3c(c12)CCCC3 [CMP-6]
5.00

Report pEC50 on vasopressin-2 receptor (AVP2R) (Homo sapiens, UniProt P30518) for this entry: COc1ccc(NC(=O)CSc2ncnc3c2sc2nc(N4CCOCC4)c4c(c23)CCCC4)cc1 [CMP-40]
5.54

Report pEC50 on vasopressin-2 receptor (AVP2R) (Homo sapiens, UniProt P30518) for this entry: CCN(CC)CCNc1ncnc2c1sc1nc(N3CCOCC3)c3c(c12)CCCC3 [CMP-1]
4.92

Report pEC50 on vasopressin-2 receptor (AVP2R) (Homo sapiens, UniProt P30518) for this entry: CC(C)Cc1nc2sc3c(NCCN4CCOCC4)ncnc3c2c2c1CCCC2 [CMP-34]
5.11

Report pEC50 on vasopressin-2 receptor (AVP2R) (Homo sapiens, UniProt P30518) for this entry: CCCc1nc2sc3c(NCCCN(C)C)ncnc3c2c2c1CCCC2 [CMP-18]
4.93
